# systemUnderTest: IDH1 R132H enzyme (Homo sapiens (Human), UniProt O75874, R132H)
# Sequence (O75874 whole entry R132H): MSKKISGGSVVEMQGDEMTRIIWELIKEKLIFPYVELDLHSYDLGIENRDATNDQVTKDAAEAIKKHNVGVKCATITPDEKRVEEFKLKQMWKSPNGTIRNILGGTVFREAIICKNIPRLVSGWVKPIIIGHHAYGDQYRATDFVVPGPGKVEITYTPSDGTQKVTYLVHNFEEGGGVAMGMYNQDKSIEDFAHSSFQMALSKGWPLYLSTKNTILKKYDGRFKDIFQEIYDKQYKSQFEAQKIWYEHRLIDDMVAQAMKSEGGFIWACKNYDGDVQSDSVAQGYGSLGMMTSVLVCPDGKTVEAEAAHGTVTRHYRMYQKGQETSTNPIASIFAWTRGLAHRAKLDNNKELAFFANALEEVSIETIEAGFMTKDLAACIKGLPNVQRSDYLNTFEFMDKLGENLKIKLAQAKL
# assayName: Mutant IDH1 R132H biochemical assay
# conditionsUsed: NADPH consumption, luminescent readout; 1.5 nM enzyme, 250 μM α-KG, 1 μM NADPH, 30 minutes, 32° C.; test range 0.002-10 μM
Entries annotated with measured log10(IC50)
Note the log scale: values are log10 of IC50 expressed in nM.

                                   compound                           systemundertest  valuemeasured
0  Cc1cc2c(cc1-c1c(C)n[nH]c1C)nc(Nc1ccc(OC(F)(F)F)cc1)n2C1CC(C)(C)CC(C)(C)C1 [Example 2-29]  IDH1 R132H enzyme (Homo sapiens (Human), UniProt O75874, R132H)           3.60

Recorded log10(IC50) of Cc1n[nH]c(C)c1-c1ccc2c(c1)nc(Nc1ccc(OC(F)(F)F)cc1)n2[C@@H]1C[C@H](C)CC(C)(C)C1 (stereo in doubt) [Example 2-5] , please.
1.95

Recorded log10(IC50) of Cc1n[nH]c(C)c1-c1ccc2c(c1)nc(Nc1ccc(SC(F)(F)F)cc1)n2[C@@H]1C[C@H](C)CC(C)(C)C1 (stereo in doubt) [Example 2-10-1] , please.
2.48

Recorded log10(IC50) of Cc1n[nH]c(C)c1-c1ccc2c(c1)nc(Nc1ccc(C(F)(F)F)cc1)n2[C@H]1C[C@@H](C)CC(C)(C)C1 (stereo in doubt) [Example 2-24-2] , please.
2.15

Recorded log10(IC50) of Cc1cc2c(cc1-c1cc(O)no1)nc(Nc1ccc(OC(F)(F)F)cc1)n2C1CC(C)(C)CC(C)(C)C1 [Example 2-37] , please.
1.48

Recorded log10(IC50) of C[C@H]1C[C@@H](n2c(Nc3ccc(OC(F)(F)F)cc3)nc3cc(-c4ccn[nH]4)ccc32)CC(C)(C)C1 (stereo in doubt) [Example 2-8] , please.
2.11

###

# systemUnderTest: IDH1 R132H enzyme (Homo sapiens (Human), UniProt O75874, R132H)
# assayName: Mutant IDH1 R132H biochemical assay
# conditionsUsed: NADPH consumption, luminescent readout; 1.5 nM enzyme, 250 μM α-KG, 1 μM NADPH, 30 minutes, 32° C.; test range 0.002-10 μM
measurementType: pIC50
// returns pIC50 (minus log10 of molar concentration), number only

>>> df
                                   molecule  valuemeasured
0  Cc1nnc(-c2ccc3c(c2)nc(Nc2ccc(OC(F)(F)F)cc2)n3C2CC(C)(C)CC(C)(C)C2)o1           6.89
1  CC1(C)CC(n2c(Nc3ccc(OC(F)(F)F)cc3)nc3cc(-c4nnn[nH]4)ccc32)CC(C)(C)C1           7.15
2  Cc1cc(-c2ccc3c(c2)nc(Nc2ccc(OC(F)(F)F)cc2)n3[C@H]2C[C@@H](C)CC(C)(C)C2)cc(C)c1O (racemic)           6.74
3  C[C@@H]1C[C@H](n2c(Nc3ccc(OC(F)(F)F)cc3)nc3cc(-c4ccc(C(=O)O)cc4)ccc32)CC(C)(C)C1 (racemic)           6.34
4  Cc1noc(C)c1-c1ccc2c(c1)nc(Nc1ccc(C(F)(F)F)cc1)n2[C@H]1C[C@@H](C)CC(C)(C)C1 (stereo in doubt)           6.74

Which measured pIC50 belongs to C[C@H]1C[C@@H](n2c(Nc3ccc(OC(F)(F)F)cc3)nc3cc(-c4cnoc4)ccc32)CC(C)(C)C1 (stereo in doubt) , tested on IDH1 R132H enzyme (Homo sapiens (Human), UniProt O75874, R132H)?
6.74

Which measured pIC50 belongs to Cc1cc(-c2ccc3c(c2)nc(Nc2ccc(OC(F)(F)F)cc2)n3[C@H]2C[C@@H](C)CC(C)(C)C2)n(C)n1 (stereo in doubt) , tested on IDH1 R132H enzyme (Homo sapiens (Human), UniProt O75874, R132H)?
5.80

Which measured pIC50 belongs to CCOc1noc(C)c1-c1ccc2c(c1)nc(Nc1ccc(OC(F)(F)F)cc1)n2[C@H]1C[C@@H](C)CC(C)(C)C1 (racemic) , tested on IDH1 R132H enzyme (Homo sapiens (Human), UniProt O75874, R132H)?
6.62

Which measured pIC50 belongs to Cc1n[nH]c(C)c1-c1ccc2c(c1)nc(Nc1ccc(SC(F)(F)F)cc1)n2[C@@H]1C[C@H](C)CC(C)(C)C1 (stereo in doubt) [Example 2-10] , tested on IDH1 R132H enzyme (Homo sapiens (Human), UniProt O75874, R132H)?
6.85

Which measured pIC50 belongs to C[C@H]1C[C@@H](n2c(Nc3ccc(OC(F)(F)F)cc3)nc3cc(-c4cnn(C)c4)ccc32)CC(C)(C)C1 (stereo in doubt) [Example 2-13-1] , tested on IDH1 R132H enzyme (Homo sapiens (Human), UniProt O75874, R132H)?
6.62

Which measured pIC50 belongs to Cc1nn(C)c(C)c1-c1ccc2c(c1)nc(Nc1ccc(OC(F)(F)F)cc1)n2[C@@H]1C[C@H](C)CC(C)(C)C1 (stereo in doubt) , tested on IDH1 R132H enzyme (Homo sapiens (Human), UniProt O75874, R132H)?
5.72

Which measured pIC50 belongs to Cc1cc2c(cc1C1OC(=O)NC1=O)nc(Nc1ccc(OC(F)(F)F)cc1)n2C1CC(C)(C)CC(C)(C)C1 (stereo not drawn) , tested on IDH1 R132H enzyme (Homo sapiens (Human), UniProt O75874, R132H)?
7.85
